These data points were gathered from ChEMBL document CHEMBL4330056.

Measured pIC50 values are reported for all entries that follow.
# TARGET OF ASSAY: UniProtKB P55263
# Sequence (P55263 whole entry): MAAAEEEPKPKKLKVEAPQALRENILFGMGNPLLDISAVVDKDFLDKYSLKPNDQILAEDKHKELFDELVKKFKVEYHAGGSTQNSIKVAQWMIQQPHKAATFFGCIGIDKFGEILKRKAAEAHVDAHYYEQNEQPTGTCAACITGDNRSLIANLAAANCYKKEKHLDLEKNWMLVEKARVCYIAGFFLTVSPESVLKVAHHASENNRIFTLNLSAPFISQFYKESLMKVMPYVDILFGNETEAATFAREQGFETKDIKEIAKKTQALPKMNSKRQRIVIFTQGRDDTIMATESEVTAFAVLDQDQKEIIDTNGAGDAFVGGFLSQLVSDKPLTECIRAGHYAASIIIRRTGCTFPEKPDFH
# EXPERIMENTAL PROTOCOL: Inhibition of recombinant human ADK using [3H]-adenosine as substrate after 20 mins by TLC scanner-based analysis relative to control
pIC50: −log10 of the molar value.

Past entries and their recorded results:
[[record]]
sample_smiles = "COc1ncnc2c1c1occc1n2[C@@H]1O[C@H](CO)[C@@H](O)[C@H]1O"
readout_label = "pIC50"
observed_value = "< 5.00"

[[record]]
sample_smiles = "Cn1ccc2c3c(-c4ccoc4)ncnc3n([C@@H]3O[C@H](CO)[C@@H](O)[C@H]3O)c21"
readout_label = "pIC50"
observed_value = "< 5.00"


// moving on: another record for pIC50
Record `OC[C@H]1O[C@@H](n2c3ccoc3c3c(-c4ccco4)ncnc32)[C@H](O)[C@@H]1O` . Reported pIC50: 5.40

====

# Tested on: BJ
# EXPERIMENTAL PROTOCOL: Antiproliferative activity against human BJ cells after 3 days by MTS assay
# CONDITION CONTEXT: 72 h
Below, each of the compounds is paired with its reported IC50 value.

Take a look at these entries with their results.
[[record]]
sample_smiles = "CN(C)c1ncnc2c1c1ccn(C)c1n2[C@@H]1O[C@H](CO)[C@@H](O)[C@H]1O"
target_of_assay = "BJ"
observed_value = "> 50 µM"

[[record]]
sample_smiles = "Nc1ncnc2c1c1occc1n2[C@@H]1O[C@H](CO)[C@@H](O)[C@H]1O"
target_of_assay = "BJ"
observed_value = "> 50 µM"

[[record]]
sample_smiles = "Cn1ccc2c1c1c(-c3ccoc3)ncnc1n2[C@@H]1O[C@H](CO)[C@@H](O)[C@H]1O"
target_of_assay = "BJ"
observed_value = "> 50 µM"


`CN(C)c1ncnc2c1c1occc1n2[C@@H]1O[C@H](CO)[C@@H](O)[C@H]1O` yielded IC50 of > 50 µM

According to the records, this compound `Cn1ccc2c3c(N)ncnc3n([C@@H]3O[C@H](CO)[C@@H](O)[C@H]3O)c21` displays IC50 of > 50 µM
